- Tested on: Avena sterilis
- experiment: Herbicidal activity against Avena sterilis accession P10S assessed as weed survival at 1/4 times field recommended herbicide dose
- Assay type: functional
measured parameter: Survival (%)
Note: unit % is implicit; provide only the numeric part.

Below: 2 compounds and their reported Survival.
CCOC(=O)[C@@H](C)Oc1ccc(Oc2nc3ccc(Cl)cc3o2)cc1	30
COCc1cnc(C2=NC(C)(C(C)C)C(=O)N2)c(C(=O)O)c1 (stereo unspecified)	20

Query block: Supply Survival value. Item: `CCc1cc(C)cc(CC)c1-c1c(OC(=O)C(C)(C)C)n2n(c1=O)CCOCC2`
Result block: 0

Query block: Dear colleague, please send me the reported Survival for CCO/N=C(\CC)C1=C(O)CC(c2c(C)cc(C)cc2C)CC1=O (stereo unspecified) when you can.
Result block: 20

Query block: Report Survival, nothing else, for this compound: COC(=O)C(C)Oc1ccc(Oc2ccc(Cl)cc2Cl)cc1 (stereo unspecified)
Result block: 90

Query block: Supply Survival value. Item: `C#CCOC(=O)[C@@H](C)Oc1ccc(Oc2ncc(Cl)cc2F)cc1`
Result block: 40

* * *

- Test system: Avena sterilis
- experiment: Herbicidal activity against Avena sterilis accession P03 assessed as weed survival at 16 times field recommended herbicide dose
- Type: functional
// values below are reported Survival
Please reply with the bare figure in % and do not write the unit itself.

Query block: Look up Survival of `CCc1cc(C)cc(CC)c1-c1c(OC(=O)C(C)(C)C)n2n(c1=O)CCOCC2` and report it.
Result block: 0

Query block: Please report the measured Survival for COC(=O)C(C)Oc1ccc(Oc2ccc(Cl)cc2Cl)cc1 (stereo unspecified)
Result block: 53

* * *

- Tested on: Avena sterilis
- experiment: Herbicidal activity against Avena sterilis accession P20 assessed as weed survival at 16 times field recommended herbicide dose
- Assay type: functional
Catalogue of compounds with associated Survival
Number in %, nothing else.

Check out these entries, answers already filled in.
COCc1cnc(C2=NC(C)(C(C)C)C(=O)N2)c(C(=O)O)c1 (stereo unspecified)	0
CCc1cc(C)cc(CC)c1-c1c(OC(=O)C(C)(C)C)n2n(c1=O)CCOCC2	0
C#CCOC(=O)[C@@H](C)Oc1ccc(Oc2ncc(Cl)cc2F)cc1	57
COC(=O)C(C)Oc1ccc(Oc2ccc(Cl)cc2Cl)cc1 (stereo unspecified)	80
CCOC(=O)[C@@H](C)Oc1ccc(Oc2nc3ccc(Cl)cc3o2)cc1	83

Kindly consider the entry below.
Query block: Give Survival for CCO/N=C(\CC)C1=C(O)CC(c2c(C)cc(C)cc2C)CC1=O (stereo unspecified)
Result block: 17

* * *

- Test system: Avena sterilis
- experiment: Herbicidal activity against Avena sterilis accession P13S assessed as weed survival at 1/4 times field recommended herbicide dose
- Assay type: functional
measured parameter: Survival (%)
Supply the numeric figure in %, leaving out any unit text.

C#CCOC(=O)[C@@H](C)Oc1ccc(Oc2ncc(Cl)cc2F)cc1 [CLODINAFOP PROPARGYL]	10
CCO/N=C(\CC)C1=C(O)CC(c2c(C)cc(C)cc2C)CC1=O (stereo unspecified) [TRALKOXYDIM]	20
COCc1cnc(C2=NC(C)(C(C)C)C(=O)N2)c(C(=O)O)c1 (stereo unspecified) [IMAZAMOX]	40

Query block: Provide only the value of recorded Survival for COC(=O)C(C)Oc1ccc(Oc2ccc(Cl)cc2Cl)cc1 (stereo unspecified) [DICLOFOP-METHYL]
Result block: 80

Query block: For the molecule CCOC(=O)[C@@H](C)Oc1ccc(Oc2nc3ccc(Cl)cc3o2)cc1 [FENOXAPROP-P-ETHYL] , report Survival.
Result block: 43

Query block: Look up and report measured Survival for this entry: CCc1cc(C)cc(CC)c1-c1c(OC(=O)C(C)(C)C)n2n(c1=O)CCOCC2 [PINOXADEN]
Result block: 3

* * *

- Test system: Avena sterilis
- experiment: Herbicidal activity against Avena sterilis accession P06S assessed as weed survival at 1/16 times field recommended herbicide dose
- Type: functional
measured parameter: Survival (%)
Numeric only. Scale: %

Answered examples (5):
CCO/N=C(\CC)C1=C(O)CC(c2c(C)cc(C)cc2C)CC1=O (stereo unspecified) [TRALKOXYDIM]	60
CCc1cc(C)cc(CC)c1-c1c(OC(=O)C(C)(C)C)n2n(c1=O)CCOCC2 [PINOXADEN]	80
COCc1cnc(C2=NC(C)(C(C)C)C(=O)N2)c(C(=O)O)c1 (stereo unspecified) [IMAZAMOX]	93
C#CCOC(=O)[C@@H](C)Oc1ccc(Oc2ncc(Cl)cc2F)cc1 [CLODINAFOP PROPARGYL]	97
COC(=O)C(C)Oc1ccc(Oc2ccc(Cl)cc2Cl)cc1 (stereo unspecified) [DICLOFOP-METHYL]	100

Query molecule follows.
Query block: Using the record for CCOC(=O)[C@@H](C)Oc1ccc(Oc2nc3ccc(Cl)cc3o2)cc1 [FENOXAPROP-P-ETHYL] , state its measured Survival.
Result block: 90

* * *

Reported Survival by item:
- Test system: Avena sterilis
- experiment: Herbicidal activity against Avena sterilis accession P10S assessed as weed survival at 1/32 times field recommended herbicide dose
- Assay type: functional
// return the numeric value with its unit appended

CCc1cc(C)cc(CC)c1-c1c(OC(=O)C(C)(C)C)n2n(c1=O)CCOCC2	100%

Query block: Output reported Survival of the molecule COCc1cnc(C2=NC(C)(C(C)C)C(=O)N2)c(C(=O)O)c1 (stereo unspecified) on Avena sterilis.
Result block: 100%

Query block: Find the measured Survival of CCO/N=C(\CC)C1=C(O)CC(c2c(C)cc(C)cc2C)CC1=O (stereo unspecified) with Avena sterilis as test system.
Result block: 97%

Query block: Supply Survival measured with Avena sterilis for COC(=O)C(C)Oc1ccc(Oc2ccc(Cl)cc2Cl)cc1 (stereo unspecified) .
Result block: 100%

Query block: Lab note: record Survival of `CCOC(=O)[C@@H](C)Oc1ccc(Oc2nc3ccc(Cl)cc3o2)cc1` tested on Avena sterilis.
Result block: 100%

Query block: Answer briefly: Survival recorded on Avena sterilis for `C#CCOC(=O)[C@@H](C)Oc1ccc(Oc2ncc(Cl)cc2F)cc1`
Result block: 83%

* * *

- Test system: Avena sterilis
- experiment: Herbicidal activity against Avena sterilis accession P02 assessed as weed survival at 1 times field recommended herbicide dose
- Assay type: functional
measured parameter: Survival (%)
# value in %; strip the unit string

Before answering, review these 5 worked examples.
C#CCOC(=O)[C@@H](C)Oc1ccc(Oc2ncc(Cl)cc2F)cc1 [CLODINAFOP PROPARGYL]	97
CCc1cc(C)cc(CC)c1-c1c(OC(=O)C(C)(C)C)n2n(c1=O)CCOCC2 [PINOXADEN]	20
CCOC(=O)[C@@H](C)Oc1ccc(Oc2nc3ccc(Cl)cc3o2)cc1 [FENOXAPROP-P-ETHYL]	100
COC(=O)C(C)Oc1ccc(Oc2ccc(Cl)cc2Cl)cc1 (stereo unspecified) [DICLOFOP-METHYL]	100
COCc1cnc(C2=NC(C)(C(C)C)C(=O)N2)c(C(=O)O)c1 (stereo unspecified) [IMAZAMOX]	3

Here is another molecule to look at.
Query block: Give Avena sterilis Survival for the following molecule: CCO/N=C(\CC)C1=C(O)CC(c2c(C)cc(C)cc2C)CC1=O (stereo unspecified) [TRALKOXYDIM]
Result block: 77

* * *

- System: Avena sterilis
- experiment: Herbicidal activity against Avena sterilis accession P15 assessed as weed survival at 1 times field recommended herbicide dose
- Type: functional
measured parameter: Survival (%)
Value expressed in %; do not type the unit.

Before answering, review these 5 worked examples.
COCc1cnc(C2=NC(C)(C(C)C)C(=O)N2)c(C(=O)O)c1 (stereo unspecified) [IMAZAMOX]	0
CCO/N=C(\CC)C1=C(O)CC(c2c(C)cc(C)cc2C)CC1=O (stereo unspecified) [TRALKOXYDIM]	70
CCc1cc(C)cc(CC)c1-c1c(OC(=O)C(C)(C)C)n2n(c1=O)CCOCC2 [PINOXADEN]	20
C#CCOC(=O)[C@@H](C)Oc1ccc(Oc2ncc(Cl)cc2F)cc1 [CLODINAFOP PROPARGYL]	100
COC(=O)C(C)Oc1ccc(Oc2ccc(Cl)cc2Cl)cc1 (stereo unspecified) [DICLOFOP-METHYL]	100

Query block: Give the measured Survival for CCOC(=O)[C@@H](C)Oc1ccc(Oc2nc3ccc(Cl)cc3o2)cc1 [FENOXAPROP-P-ETHYL]
Result block: 100

* * *

- Test system: Avena sterilis
- experiment: Herbicidal activity against Avena sterilis accession P03 assessed as weed survival at 1 times field recommended herbicide dose
- Assay type: functional
Threshold-based label: Survival under 20% gives MET, Survival not under 20% gives NOT MET.

Example cases with answers are listed next.
CCOC(=O)[C@@H](C)Oc1ccc(Oc2nc3ccc(Cl)cc3o2)cc1 [FENOXAPROP-P-ETHYL]	NOT MET
COC(=O)C(C)Oc1ccc(Oc2ccc(Cl)cc2Cl)cc1 (stereo unspecified) [DICLOFOP-METHYL]	NOT MET
C#CCOC(=O)[C@@H](C)Oc1ccc(Oc2ncc(Cl)cc2F)cc1 [CLODINAFOP PROPARGYL]	NOT MET
CCO/N=C(\CC)C1=C(O)CC(c2c(C)cc(C)cc2C)CC1=O (stereo unspecified) [TRALKOXYDIM]	NOT MET

Pending compound:
Query block: For this compound, is Survival lower than 20%? COCc1cnc(C2=NC(C)(C(C)C)C(=O)N2)c(C(=O)O)c1 (stereo unspecified) [IMAZAMOX]
Result block: MET
